Target: T1, Extracellular domain of cyno PD1 (cPD1-ECD) (Macaca fascicularis (cynomolgus))
T1 construct: Expressed with a hexahistidine tag or as Fc fusion; also called cynoPD1-ECD; cynoPD-1-ECD
T1 chain: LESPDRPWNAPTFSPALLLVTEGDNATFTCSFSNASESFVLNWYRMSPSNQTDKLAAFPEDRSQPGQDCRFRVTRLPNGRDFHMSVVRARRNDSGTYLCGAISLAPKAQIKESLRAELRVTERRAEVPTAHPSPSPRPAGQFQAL
Assay: SPR ProteOn, captured mAb, cynoPD1-ECD analyte;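 also: ProteOn XPR36 SPR with antibodies held by anti-IgG Fc on a GLC chip, kinetic constants obtained by fitting to a Langmuir 1:1 binding model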
endpoint name: kon (M⁻¹ s⁻¹)
Entry rule: numbers only, all in M⁻¹ s⁻¹.

PD1B201 (antibody, V domains shown, also called PD1H164/PD1L190) VH: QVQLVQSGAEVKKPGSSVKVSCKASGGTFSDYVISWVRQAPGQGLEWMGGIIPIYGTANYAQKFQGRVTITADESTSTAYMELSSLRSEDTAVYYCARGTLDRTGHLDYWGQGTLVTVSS VL: EIVLTQSPATLSLSPGERATLSCRASQSVSNYLAWYQQKPGQAPRLLIYDASNRATGIPARFSGSGSGTDFTLTISSLEPEDFAVYYCQQRNYWPLTFGQGTKVEIK	305000

Prompt: Quick check: kon of PD1B11 (antibody, V domains shown, Tested as IgG2sigma/kappa; also called PD1H3/PH9L3) VH: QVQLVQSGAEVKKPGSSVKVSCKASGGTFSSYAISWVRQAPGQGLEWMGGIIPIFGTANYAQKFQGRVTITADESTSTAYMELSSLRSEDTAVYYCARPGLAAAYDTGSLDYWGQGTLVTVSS VL: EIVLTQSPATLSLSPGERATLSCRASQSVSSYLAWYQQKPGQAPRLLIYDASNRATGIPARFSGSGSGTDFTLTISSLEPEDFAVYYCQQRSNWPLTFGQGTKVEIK ?
Response: 350000

Prompt: Quick check: kon of PD1B71 (antibody, V domains shown, Tested as IgG2sigma/kappa; also called PD1H108/PH9L3) VH: QVQLVQSGAEVKKPGSSVKVSCKASGGTFSSYAISWVRQAPGQGLEWMGGIIPIFGTANYAQKFQGRVTITADESTSTAYMELSSLRSEDTAVYYCARGTLDRTGHLDYWGQGTLVTVSS VL: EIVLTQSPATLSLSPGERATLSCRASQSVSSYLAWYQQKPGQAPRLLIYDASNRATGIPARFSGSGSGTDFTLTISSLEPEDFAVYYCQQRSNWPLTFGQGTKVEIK ?
Response: 377000
